Study Target: AHR (Mus musculus, UniProt P30561)
Sequence (P30561 1-848 P471L/N533S/M589L): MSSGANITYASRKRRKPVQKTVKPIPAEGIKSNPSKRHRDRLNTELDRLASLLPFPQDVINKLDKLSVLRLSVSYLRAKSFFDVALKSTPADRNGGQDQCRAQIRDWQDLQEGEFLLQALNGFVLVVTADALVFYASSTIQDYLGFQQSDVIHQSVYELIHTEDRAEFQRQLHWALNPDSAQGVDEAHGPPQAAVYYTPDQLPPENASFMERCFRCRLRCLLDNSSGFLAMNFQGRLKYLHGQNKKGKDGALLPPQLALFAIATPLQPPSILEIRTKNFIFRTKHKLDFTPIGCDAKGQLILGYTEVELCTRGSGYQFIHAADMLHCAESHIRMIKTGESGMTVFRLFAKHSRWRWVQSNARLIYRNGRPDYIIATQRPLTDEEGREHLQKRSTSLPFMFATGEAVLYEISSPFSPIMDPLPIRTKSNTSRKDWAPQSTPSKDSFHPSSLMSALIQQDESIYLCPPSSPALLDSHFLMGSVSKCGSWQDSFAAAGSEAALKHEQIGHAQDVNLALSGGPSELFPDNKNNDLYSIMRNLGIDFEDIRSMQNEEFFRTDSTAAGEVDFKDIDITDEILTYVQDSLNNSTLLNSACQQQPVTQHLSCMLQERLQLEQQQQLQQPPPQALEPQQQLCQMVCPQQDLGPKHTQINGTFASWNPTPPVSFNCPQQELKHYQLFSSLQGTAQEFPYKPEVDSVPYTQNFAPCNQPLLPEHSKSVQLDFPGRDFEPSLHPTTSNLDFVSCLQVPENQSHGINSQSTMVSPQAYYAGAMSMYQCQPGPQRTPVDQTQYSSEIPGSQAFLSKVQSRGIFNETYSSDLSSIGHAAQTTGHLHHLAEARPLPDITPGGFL
Assay: In vitro assay 3: antagonism in mouse cell line (AHR transactivation, firefly luciferase reporter, kynurenic acid prestimulated)
Type: cell-based
Condition Info: read-out: AHR Antagonism Mouse IC50, mouse Hepa 1c1c7 cells, 200 μM kynurenic acid, 20 hours
Sorting guide: entries reporting IC50 beneath 70 nM go in the rule met pile, the rest go in the rule not met pile.

* CC[C@H](Nc1nc2c(Br)cccc2c2nc(-c3ccc(Cl)cc3OC(F)F)nn12)C(N)=O | rule met
* CCCCC(Nc1nc2ccccc2c2nc(-c3cccc(OC(F)(F)F)c3)nn12)C(N)=O (single isomer, unassigned) | rule met
* COc1ccc(-c2nc3c4cccc(O)c4nc(N[C@@H]4CCCCNC4=O)n3n2)cc1 | rule met
* CS(=O)(=O)c1ccc(-c2nc3c4cccc(Br)c4nc(N[C@H]4CCCCNC4=O)n3n2)cc1 | rule met
* COc1cccc(-c2nc3c4c(C)cccc4nc(NC4CCNC4=O)n3n2)c1 (single isomer, unassigned) [Example 190] | rule not met
* COc1cccc(-c2nc3c4c(C)cccc4nc(NC4CCNC4=O)n3n2)c1 (stereo not shown) [Example 179] | rule not met
